target: SRPK1 (Homo sapiens, UniProt Q96SB4); test: In vitro kinase assay (Kinase-Glo), SRPK1; assay type: biochemical; details: FIG. 7; read-out: SRPK1 inhibition IC50
Sequence (Q96SB4 whole entry, species assumed): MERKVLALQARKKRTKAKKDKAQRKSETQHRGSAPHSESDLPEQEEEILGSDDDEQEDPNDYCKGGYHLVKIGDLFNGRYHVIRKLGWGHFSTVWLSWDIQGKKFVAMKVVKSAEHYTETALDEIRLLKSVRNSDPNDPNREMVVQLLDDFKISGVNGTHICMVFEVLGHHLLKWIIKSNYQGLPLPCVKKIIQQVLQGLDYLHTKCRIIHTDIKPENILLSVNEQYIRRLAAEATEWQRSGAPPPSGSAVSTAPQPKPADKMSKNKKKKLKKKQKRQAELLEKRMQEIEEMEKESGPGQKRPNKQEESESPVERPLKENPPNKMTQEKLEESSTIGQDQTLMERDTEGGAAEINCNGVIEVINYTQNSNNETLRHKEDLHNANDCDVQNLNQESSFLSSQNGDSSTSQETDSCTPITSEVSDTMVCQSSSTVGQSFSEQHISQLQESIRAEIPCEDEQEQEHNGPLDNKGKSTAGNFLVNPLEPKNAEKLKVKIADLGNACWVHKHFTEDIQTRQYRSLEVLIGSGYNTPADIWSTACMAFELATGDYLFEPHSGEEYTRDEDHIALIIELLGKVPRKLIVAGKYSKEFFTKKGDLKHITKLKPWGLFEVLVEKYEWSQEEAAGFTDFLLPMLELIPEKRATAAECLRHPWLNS
pIC50: −log10 of the molar value.

# COMPOUND, pIC50
measured = [
    ("CN(C)CCN1CCN(c2ccc(C(F)(F)F)cc2NC(=O)c2ccc(-c3cccnc3)o2)CC1 [SPHINX6]", 6.76),
]

====

target: SRPK2 (Homo sapiens, UniProt P78362)
Sequence (P78362 whole entry, species assumed): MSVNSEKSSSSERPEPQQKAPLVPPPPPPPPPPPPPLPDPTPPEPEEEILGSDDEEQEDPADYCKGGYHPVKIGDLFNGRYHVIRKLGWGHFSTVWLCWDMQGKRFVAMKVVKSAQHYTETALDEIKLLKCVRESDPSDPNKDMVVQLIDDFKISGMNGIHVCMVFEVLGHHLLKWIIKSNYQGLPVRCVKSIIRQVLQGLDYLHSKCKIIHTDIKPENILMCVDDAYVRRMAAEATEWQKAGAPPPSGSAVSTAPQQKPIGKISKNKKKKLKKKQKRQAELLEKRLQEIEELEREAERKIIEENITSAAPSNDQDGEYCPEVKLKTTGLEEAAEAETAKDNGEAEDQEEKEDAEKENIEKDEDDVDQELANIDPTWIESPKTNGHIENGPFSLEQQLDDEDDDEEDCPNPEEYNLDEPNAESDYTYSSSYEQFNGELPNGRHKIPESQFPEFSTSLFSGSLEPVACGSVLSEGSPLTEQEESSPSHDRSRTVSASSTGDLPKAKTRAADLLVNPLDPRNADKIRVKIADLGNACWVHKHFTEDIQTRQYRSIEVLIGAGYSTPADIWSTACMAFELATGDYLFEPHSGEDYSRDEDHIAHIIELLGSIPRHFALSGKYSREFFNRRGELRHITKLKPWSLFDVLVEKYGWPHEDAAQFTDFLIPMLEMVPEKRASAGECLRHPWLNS

# SMILES_CODE, UNIT_SYMBOL, IC50
data = [
    ("O=C(Nc1cc(C(F)(F)F)ccc1N1CCCCC1)c1ccncc1", "µM", 7.4),
]
